System: NCI-H23 lung
Test: NCI-60 one-dose screen, 48 h
Conditions: 10 µM unless noted
Compounds without any hit were thinned out: in the full panel of roughly 83,000, 20% have a hit. Active and inactive are the calls of the source. How the source made its calls: active means growth percent below 10; inactive means the rest.
Returns: one label drawn from active, inactive

Before answering, review these 3 worked examples.
[[record]]
compound = "C=CCn1c(SCC(=O)Nc2ccc(OC)cc2)nnc1-c1ccc(Cl)cc1"
assigned_label = "inactive"

[[record]]
compound = "Cc1ccc(NC(=O)c2cc(/C=C/C(=O)NO)cc(C(F)(F)F)c2)cc1Nc1nccc(-c2cccnc2)n1"
assigned_label = "active"

[[record]]
compound = "CCOC(=O)/C(F)=C/C1CC1CCc1cccc(C(F)(F)F)c1 (centres undefined)"
assigned_label = "inactive"


Now look at this entry.
Query: Status in this test for CCn1c2ccc(/C=N/NS(=O)(=O)CCN(C)C)cc2c2cc(/C=N/NS(=O)(=O)CCN(C)C)ccc21 ?
Reply: inactive

----------
System: HCT-116 colon
Experiment: NCI-60 one-dose screen, 48 h
Settings: 10 µM unless noted
About 83,000 compounds went through this panel and 20% of them were active in at least one assay; those are over-represented in the sample as a whole. Calls of active or inactive are those of the source. The calls were made as follows: active = growth percent below 10; inactive = the rest.
Returns: one label drawn from active, inactive

Query: Status in this test for CC1=C2C(=C[C@@](C)(COS(N)(=O)=O)[C@@H]2O)C(=O)[C@](C)(O)C12CC2 ?
Reply: inactive

Query: Status in this test for CC1CCc2c(sc3nc(SCC(=O)N/N=C/c4ccc(Cl)cc4)n(-c4ccccc4)c(=O)c23)C1 (configuration not stated) ?
Reply: inactive

Query: Status in this test for COc1ccc2c(c1)c(-c1nn3c(=O)cc(-c4ccccc4)nc3s1)cn2C ?
Reply: inactive

Query: Status in this test for COc1ccc(N)cc1C(=O)Nc1cccc(-c2cc(=O)c3c(OC)c(OC)c(OC)cc3o2)c1 ?
Reply: inactive

Query: Status in this test for CCOC(=O)Nc1cccc(-n2cnc3cc(-c4ccc(O)cc4)ccc32)c1 ?
Reply: inactive

Query: Status in this test for Cc1cc(O)c2c(c1)C(=O)C(c1c(C)cc3c(c1O)C(=O)C=CC3=O)=CC2=O ?
Reply: inactive

Query: Status in this test for Cc1cn(-c2cc(NC(=O)c3cncc(C#Cc4cnc5ccc(O[C@@H]6CCOC6)nn45)c3)cc(C(F)(F)F)c2)cn1 ?
Reply: active

----------
System: HT29 colon
Assay: NCI-60 one-dose screen, 48 h
Details: 10 µM unless noted
About 83,000 compounds went through this panel and 20% of them were active in at least one assay; those are over-represented in the sample as a whole. Activity calls are given as the source filed them. Rule for the calls: active = growth percent below 10; inactive = the rest.
Returns: one label drawn from active, inactive

Before answering, review these 4 worked examples.
[[record]]
molecule = "O=C(/C=C1\\C=CN(CCCCO)c2ccccc21)n1ccc2ccccc21"
assigned_label = "inactive"

[[record]]
molecule = "COc1cc2cc(Oc3ccc(NC(=O)c4cccc(C(F)(F)F)c4)cc3)c(C)nc2cc1OCCN(C)C"
assigned_label = "inactive"

[[record]]
molecule = "CN(C)c1ccc(/C=N/Nc2nc(N/N=C/c3ccc(N(C)C)cc3)nc(N3CCOCC3)n2)cc1"
assigned_label = "inactive"

[[record]]
molecule = "CCOC(=O)C1=C(C)Nc2nc3ccccc3n2C1c1ccccc1 (stereo unspecified)"
assigned_label = "inactive"


Now look at this entry.
Query: Status in this test for Clc1ccccc1/C=C/c1nn2c(-c3ccncc3)nnc2s1 ?
Reply: inactive

----------
Test system: SR leukemia
Assay: NCI-60 one-dose screen, 48 h (100 = growth as untreated, 0 = no growth, -100 = all killed)
Details: 10 µM unless noted
About 83,000 compounds went through this panel and 20% of them were active in at least one assay; those are over-represented in the sample as a whole.
So basically every entry gets a class from its growth, ranges being class A (below 30%), class B (30% to below 70%), class C (70% or more)

Before answering, review these 3 worked examples.
[[record]]
compound = "O=c1[nH]c(CCl)nc2c1cnn2-c1ccccc1"
assigned_label = "class C"

[[record]]
compound = "O=C(Nc1cc(F)cc2cccnc12)c1cnc(N2CCOCC2)cn1"
assigned_label = "class B"

[[record]]
compound = "COc1ccc(NC(=O)[C@H](C)N)cc1C(=O)Nc1cccc(-c2cc(=O)c3c(OC)c(OC)c(OC)cc3o2)c1"
assigned_label = "class B"


Query: Which class holds CCCC(=O)NC(c1cccnc1)c1cc(Cl)c2cccnc2c1O (stereo unspecified) ?
Reply: class B

Query: Which class holds COc1ccc(-c2nc3cc(Cl)c(Cl)cc3n2CC(=O)N=Nc2c(O)[nH]c3ccc(Cl)cc23)cc1 ?
Reply: class B

Query: Which class holds Oc1ccccc1-c1nnc(SCc2ccc(O)c3ncccc23)n1-c1ccccc1 ?
Reply: class A

----------
Test system: HT29 colon
Assay: NCI-60 one-dose screen, 48 h (100 = growth as untreated, 0 = no growth, -100 = all killed)
Settings: 10 µM unless noted
Compounds without any hit were thinned out: in the full panel of roughly 83,000, 20% have a hit.
Measure Name: growth (%)
The answer is to be given in %; state only the numeric part.

Below: 3 compounds and their reported growth.
[[record]]
smiles_data = "O=C(/C=C/Nc1ccc(S(=O)(=O)O)cc1)c1ccc(F)cc1"
measure_name = "growth"
unit_spec = "%"
reported_measurement = 103

[[record]]
smiles_data = "N/C(=N\\c1nc2c(Cl)cccc2s1)C(Cl)(Cl)Cl"
measure_name = "growth"
unit_spec = "%"
reported_measurement = 46.8

[[record]]
smiles_data = "Cc1cn(-c2cc(NC(=O)c3cncc(C#Cc4cnc5ccc(OCCCS(C)(=O)=O)nn45)c3)cc(C(F)(F)F)c2)cn1"
measure_name = "growth"
unit_spec = "%"
reported_measurement = 16.1


The recorded growth for COc1ccc(NS(=O)(=O)c2ccc(-c3cnc(C4CC4)o3)cc2)cc1Cl is 10.6

----------
Tested on: A549/ATCC NSCLC
Assay: NCI-60 one-dose screen, 48 h (100 = growth as untreated, 0 = no growth, -100 = all killed)
Conditions: 10 µM unless noted
Compounds without any hit were thinned out: in the full panel of roughly 83,000, 20% have a hit. Activity calls are given as the source filed them. Rule for the calls: active = growth percent below 10; inactive = the rest.
Measure Name: growth

Below: 2 molecules and their reported growth.
[[record]]
molecule = "Cn1c(SC(C(=O)Nc2ccc(F)cc2)c2ccccc2)nc2ccccc2c1=O (stereo not drawn)"
measure_name = "growth"
reported_measurement = "99.1% (inactive)"

[[record]]
molecule = "C=CCn1c(SCC(=O)c2ccc(OC)cc2)nnc1-c1ccc(OC)cc1"
measure_name = "growth"
reported_measurement = "99.2% (inactive)"


Please look at the following molecule next.
The recorded growth for CCN1C(=O)N(CC)C2SC(N/N=C/c3ccc(OC)cc3)=NC21 (stereo not drawn) is 23.9% (inactive)

----------
Some molecules, each annotated with its measured growth.
Tested on: BT-549 breast
Test: NCI-60 one-dose screen, 48 h (100 = growth as untreated, 0 = no growth, -100 = all killed)
Details: 10 µM unless noted
Compounds without any hit were thinned out: in the full panel of roughly 83,000, 20% have a hit.
The answer is to be given in %; state only the numeric part.

[[record]]
molecule = "COc1ccc(N2C(=O)c3cc(OC)c(OC)cc3NC2SCc2ccccc2)cc1 (centres undefined)"
measure_name = "growth"
reported_measurement = 106


The recorded growth for COc1cc2oc(-c3cccc(NC(=O)c4cc(NC(=O)[C@H](C)N)ccc4Cl)c3)cc(=O)c2c(OC)c1OC is 108

The recorded growth for Cc1ccc(S(=O)(=O)N/N=C/c2cn(-c3ccc(F)cc3)nc2-c2ccc(S(C)(=O)=O)cc2)cc1 is 105

The recorded growth for CCNC(=O)Oc1ccc(/C(=C(/C)c2ccccc2)c2ccc(OCCN3CCCC3)cc2)cc1 is 70.4

----------
Some compounds, each annotated with its measured growth.
Tested on: NCI-H460 lung
Test: NCI-60 one-dose screen, 48 h (100 = growth as untreated, 0 = no growth, -100 = all killed)
Conditions: 10 µM unless noted
Compounds without any hit were thinned out: in the full panel of roughly 83,000, 20% have a hit.
The answer is to be given in %; state only the numeric part.

[[record]]
compound = "Cc1cccc(NC(c2cc3cccc4ccc5cccc2c5c43)c2nnnn2C(C)(C)C)c1C (stereo not drawn)"
measure_name = "growth"
unit_spec = "%"
reported_measurement = 93.4

[[record]]
compound = "O=C(NCCCNc1cc(-c2cn(-c3ccccc3)nc2-c2cccc(O)c2)ccn1)Nc1cc(C(F)(F)F)cc(C(F)(F)F)c1"
measure_name = "growth"
unit_spec = "%"
reported_measurement = 61.3


Please look at the following compound next.
Test item Cc1ccc(NC(=O)c2cccc(CN3CCN(C)CC3)c2)cc1Oc1ccc(-c2[nH]nc3ncnc(N)c23)cc1 ; NCI-H460 lung; reported growth was 72.8

----------
System: MDA-MB-231 breast
Assay: NCI-60 one-dose screen, 48 h (100 = growth as untreated, 0 = no growth, -100 = all killed)
Settings: 10 µM unless noted
The panel holds about 83,000 compounds, 20% with a hit somewhere; the sample as a whole holds those more often.
So basically every entry gets a class from its growth, ranges being category 1 = under 50%, category 2 = from 50% up to 70%, category 3 = 70% and over

Before answering, review these 3 worked examples.
[[record]]
smiles_data = "Cc1ccc(-c2nnc3sc(C4=Cc5ccccc5OC=C4)nn23)cc1"
assigned_label = "category 3"

[[record]]
smiles_data = "O=S(=O)(Nc1cc(Cl)c(F)c(Cl)c1)c1ccc(-c2cnc(C3CC3)o2)cc1"
assigned_label = "category 2"

[[record]]
smiles_data = "O=C1/C(=C/c2ccc([N+](=O)[O-])cc2)SC(=Nc2ccccc2)N1Nc1ccccc1"
assigned_label = "category 2"


Query: Which class holds O=C(NNc1nc2cc(F)ccc2n2cncc12)c1cnccn1 ?
Reply: category 1

Query: Which class holds CC[C@]12C=CCN3CC[C@]4(C(=C(C(=O)OC)C1)Nc1cc5c(cc14)[C@@H]1[C@H](O5)[C@@H](O)[C@@]4(CC)CC(C(=O)OC)=C5Nc6cc(OC)ccc6[C@@]56CCN1[C@@H]46)[C@@H]32 ?
Reply: category 1

Query: Which class holds COC(=O)Nc1ccc(-c2nc(-c3cccc(O)c3)c(-c3ccnc(Br)c3)[nH]2)cc1 ?
Reply: category 2

Query: Which class holds CCOC(=O)c1c(NCC(=O)Nc2cccc([N+](=O)[O-])c2)sc2c1CCCC2 ?
Reply: category 1

Query: Which class holds O=c1c2c(O)cccc2oc2c3c(cc(O)c12)O[C@H]1OC=C[C@@H]31 ?
Reply: category 3

Query: Which class holds CCNC(=O)Oc1ccc(/C(=C(/C)c2ccccc2)c2ccc(OCCN3CCCC3)cc2)cc1 ?
Reply: category 2

Hey, just so you know, these numbers are from PubChem BioAssay (NCI).
